Measured values drawn from PubChem BioAssay (Tox21) for this set.

# Measured On: Cytochrome P450 2C19 (Homo sapiens)
# Test Details: Cytochrome P450 Family 2 Subfamily C Member 19 (CYP2C19) small molecule antagonists: luciferase reporter qHTS assay (AID 1671197); further: nearly all actives have a fitted effect of over 65% in size
# Condition: P450-Glo CYP2C19 enzyme, luciferin luminescence, 1 h; series mostly up to 115 µM
Results filed as inconclusive are left out. The source made the active and inactive calls. The call rests on the fitted dose curve; in most records, active means well fitted inhibition curve with a large enough effect in the repeat runs; inconclusive means weak or mixed curves; inactive means no such curve, though single readings can be large or run the other way.
Use one of these outcomes when replying: T (active), F (inactive)

Worked cases, answers included:
Molecule: CC(C)CCCCCCCOC(=O)c1ccccc1C(=O)OCCCCCCCC(C)C
Group Label: F
//
Molecule: CC(CC(C(N)=O)(c1ccccc1)c1ccccc1)N(C)C (centres undefined)
Group Label: F
//
Molecule: CC(C)c1ccc(NC(=O)N(C)C)cc1
Group Label: T

Let us examine a further case.
Assay result, entry CCCC[N+]1(C)[C@@H]2CC(OC(=O)[C@H](CO)c3ccccc3)C[C@H]1[C@@H]1O[C@@H]12 (some centres undefined) — outcome? F

###

# Measured On: Glucocorticoid receptor (Homo sapiens) (UniProt P04150)
# Sequence (P04150 whole entry, looked up): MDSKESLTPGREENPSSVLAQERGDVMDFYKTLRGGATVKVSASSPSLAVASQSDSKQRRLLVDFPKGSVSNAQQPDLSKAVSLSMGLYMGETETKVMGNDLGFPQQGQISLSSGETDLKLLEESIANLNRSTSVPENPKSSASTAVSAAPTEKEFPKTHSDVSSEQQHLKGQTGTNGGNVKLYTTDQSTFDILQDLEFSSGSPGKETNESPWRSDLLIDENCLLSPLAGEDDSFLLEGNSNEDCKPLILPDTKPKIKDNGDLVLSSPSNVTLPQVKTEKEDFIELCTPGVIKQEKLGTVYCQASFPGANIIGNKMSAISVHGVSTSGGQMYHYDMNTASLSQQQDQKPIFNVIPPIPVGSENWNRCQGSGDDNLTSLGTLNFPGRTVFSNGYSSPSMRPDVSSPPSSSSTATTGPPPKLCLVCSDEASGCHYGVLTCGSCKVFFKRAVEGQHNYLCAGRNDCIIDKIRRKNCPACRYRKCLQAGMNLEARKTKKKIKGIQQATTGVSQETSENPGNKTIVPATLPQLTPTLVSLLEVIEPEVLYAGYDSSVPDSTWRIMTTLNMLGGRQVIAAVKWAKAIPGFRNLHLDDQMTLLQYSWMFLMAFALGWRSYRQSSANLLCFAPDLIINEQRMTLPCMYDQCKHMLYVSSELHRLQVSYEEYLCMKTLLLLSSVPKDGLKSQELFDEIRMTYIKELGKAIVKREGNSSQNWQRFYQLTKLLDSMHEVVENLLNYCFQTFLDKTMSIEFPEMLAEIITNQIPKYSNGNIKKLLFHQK
# Test Details: qHTS assay to identify small molecule agonists of the glucocorticoid receptor (GR) signaling pathway (AID 720691)
# Condition: GR-bla HeLa, beta-lactamase reporter ratio, 18 h; series mostly up to 62.4 µM
Inconclusive results are not listed. Calls of active or inactive are those of the source. Calls follow the shape of the dose curve; as a rule, active = well fitted activation curve with a large enough effect in the signal ratio in the repeat runs (not every such curve was filed as active); inconclusive = weak or mixed curves, or effect the other way; inactive = no such curve, though single readings can be large or run the other way; the % refers to the signal ratio.
Return exactly one item of active, inactive

Before answering, review these 2 worked examples.
Compound: NCCc1cc(O)c(O)cc1O
Group Label: inactive
//
Compound: CN1C[C@H](C(=O)N[C@]2(C)O[C@@]3(O)[C@@H]4CCCN4C(=O)[C@H](Cc4ccccc4)N3C2=O)C=C2c3cccc4[nH]cc(c34)C[C@H]21
Group Label: inactive

Any idea what this test logged for CCCCCCCCP(=O)(O)O ? inactive

Call for entry C=CCc1ccccc1O : inactive

How did this test come out for CC(C)c1ccc(OP(=O)(Oc2ccc(C(C)C)cc2)Oc2ccc(C(C)C)cc2)cc1 ? inactive

What did this assay record as the result for CC(O)CN1CCN(CC(=O)[O-])CCN(CC(=O)[O-])CCN(CC(=O)[O-])CC1.[Gd+3] (stereo not drawn) ? inactive

Outcome? Oc1cccc(Cl)c1 inactive

Outcome? CCCCC(CC)COC(=O)c1c(Br)c(Br)c(Br)c(Br)c1C(=O)OCC(CC)CCCC (stereo not drawn) active

###

# Test Details: qHTS assay for identifying genotoxic compounds that show differential cytotoxicity against isogenic chicken DT40 cell lines with known DNA damage response pathways - Rad54/Ku70 mutant cell line (AID 743015); further: nearly all actives have a fitted effect of over 60% in size
# Condition: DT40 Rad54/Ku70 mutant viability, CellTiter-Glo, 40 h; series mostly up to 66.8 µM
Results filed as inconclusive are left out. Activity calls are given as the source filed them. The call rests on the fitted dose curve; in most records, active means well fitted cell-killing curve with a large enough effect in the repeat runs; inconclusive means weak or mixed curves; inactive means no such curve, though single readings can be large or run the other way.
Answer with one of the outcomes given here: Y for active, N for inactive

Consider the following illustrative entries.
Molecule: OC[P+](CO)(CO)CO
Group Label: N
//
Molecule: O=C(Cc1ccccc1)OCCc1ccccc1
Group Label: Y
//
Molecule: C[C@H](N)[C@H](O)c1ccc(O)c(O)c1
Group Label: Y
//
Molecule: CCCCCCCCCCCCCCCl
Group Label: N

Per the assay record, what outcome was assigned to N#CC(C#N)=Cc1ccc(O)c(O)c1 ? Y

Hi team, can someone confirm the assay call for CCNC(=O)NC(=O)/C(C#N)=N/OC ? N

Dear colleague, could you share the recorded outcome for N#CC1(N=NC2(C#N)CCCCC2)CCCCC1 when you have a moment? N

Which result was noted for this molecule in the test: NC(=O)CF N

Answer briefly: the call reported for OCCSSCCO in this assay. N

What did the test return for CCOP(=S)(S)OCC ? N

I would be grateful if you could indicate the recorded call for COC1=CC(=O)O[C@@H](/C=C/c2ccc3c(c2)OCO3)C1 . N

State the result this test recorded for CC(Oc1cc(Cl)c(Cl)cc1Cl)C(=O)O (stereo unspecified) . N

In this assay, the call recorded for CCOC(=O)c1cncn1C(C)c1ccccc1 (stereo unspecified) was what? N

// param item: CC(C)(C)N(NC(=O)c1ccc(Cl)cc1)C(=O)c1ccccc1 ; yields the recorded call Y

GET /call?item= O=C(O)C(Cl)(Cl)Br returns the recorded outcome of this test. N
